experimental.target: T1, GFP-9S library array, motif 4 ND N98G;D124A (synthetic construct, N98G;D124A)
T1 chain: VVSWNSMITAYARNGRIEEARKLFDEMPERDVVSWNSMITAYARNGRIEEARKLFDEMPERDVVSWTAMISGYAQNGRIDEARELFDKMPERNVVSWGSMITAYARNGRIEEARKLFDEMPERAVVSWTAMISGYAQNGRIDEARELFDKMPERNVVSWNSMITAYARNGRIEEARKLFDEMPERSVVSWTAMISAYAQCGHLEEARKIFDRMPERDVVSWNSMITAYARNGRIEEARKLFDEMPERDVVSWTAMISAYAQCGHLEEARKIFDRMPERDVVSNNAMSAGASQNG
protocol.details: high-throughput RNA pulldown from lysate on Ni-NTA beads; HRP: 50 mM Tris pH 8, 150 mM NaCl, 1 mM beta-mercaptoethanol, 50 ug/ml BSA, 3 ug/ml yeast RNA, 0.5% heparin; ITC and FP: Tris pH 8, 200 mM KCl, 5% glycerol; MST: 50 mM Tris pH 8, 200 mM NaCl, 1 mM DTT, BSA, heparin, 0.05% Tween 20
experimental.context: tags: N-terminal His-eGFP; label: 5' Cy5
pKd: −log10 of the molar value.
readout: pKd

>>> observed_value("AUUAGACGUGA (ssRNA) [Cy5-rpoA-G]")
7.00
>>> observed_value("AUUACACGUGA (ssRNA) [Cy5-rpoA]")
6.91
